molecular target: human BTK (Homo sapiens, UniProt Q06187); construct: GST (Glutathione-S-Transferase) (cleaved yes); made in house; host or cells: Spodoptera frugiperda Sf9 cells (baculovirus, Bac-to-Bac); assay: BTK inhibition assay: BTK-mediated phosphorylation of FAM-labeled substrate 5-FAM-EEPLYWSFPAKKK-NH2 (Caliper LC-3000); type: biochemical; conditions: pIC50 = -log(IC50), IC50 molar; residues 382 to 659 of human BTK; incubated at room temperature for 60 minutes; larger values represent higher potency
Sequence (Q06187 382-659): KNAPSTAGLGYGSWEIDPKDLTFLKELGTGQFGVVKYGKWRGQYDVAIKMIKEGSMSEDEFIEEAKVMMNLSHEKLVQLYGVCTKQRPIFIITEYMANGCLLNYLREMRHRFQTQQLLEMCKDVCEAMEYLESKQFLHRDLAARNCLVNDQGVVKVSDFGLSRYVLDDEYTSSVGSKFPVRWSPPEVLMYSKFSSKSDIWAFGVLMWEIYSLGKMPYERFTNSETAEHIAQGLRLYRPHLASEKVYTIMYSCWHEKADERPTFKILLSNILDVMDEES
property name: IC50 (nM)

Here is how some compounds turned out for IC50.
{"compound": "COc1ccc2c(N)c(C(N)=O)nnc2c1-c1ccc2nc[nH]c2c1 [Example 46]", "system": "human BTK (Homo sapiens, UniProt Q06187)", "IC50 (nM)": 63.1}
{"compound": "Cc1cc(F)c2c(N)c(C(N)=O)nnc2c1-c1ccc2c(c1)CNC2=O [Example 126]", "system": "human BTK (Homo sapiens, UniProt Q06187)", "IC50 (nM)": 12.6}
{"compound": "NC(=O)c1nnc2c(-c3ccc4cn[nH]c4c3)c(Cl)ccc2c1N [Example 54]", "system": "human BTK (Homo sapiens, UniProt Q06187)", "IC50 (nM)": 15.8}
{"compound": "Cc1ccc2c(N)c(C(N)=O)nnc2c1-c1ccc2ncn(CCO)c2c1 [Example 134]", "system": "human BTK (Homo sapiens, UniProt Q06187)", "IC50 (nM)": 794}
{"compound": "Cc1ccc2c(N)c(C(N)=O)nnc2c1-c1ccc2cn[nH]c2c1 [Example 28]", "system": "human BTK (Homo sapiens, UniProt Q06187)", "IC50 (nM)": 7.94}

(A) Cc1ccc2c(N)c(C(N)=O)nnc2c1-c1ccc2[nH]ccc2c1 [Example 24]
(B) NC(=O)c1nnc2c(-c3ccc4nccn4c3)cccc2c1N [Example 10]
(C) CCn1cnc2cc(-c3c(C)ccc4c(N)c(C(N)=O)nnc34)ccc21 [Example 132]
(D) Cc1ccc2c(N)c(C(N)=O)nnc2c1-c1ccc2c(C#N)n[nH]c2c1 [Example 96]
Request: Order the entries by their reported IC50, beginning at the minimum. Answer format: the labels, ordered as requested.
Result: D, A, B, C
(D: 158 nM, A: 251 nM, B: 631 nM, C: 1260 nM)

---

biological target: human BTK (Homo sapiens, UniProt Q06187)
property name: IC50 (nM)

{"compound structure": "NC(=O)c1nnc2c(-c3ccc4nc(NCc5cccs5)[nH]c4c3)cccc2c1N", "IC50 / nM": 10}
{"compound structure": "NC(=O)c1nnc2c(-c3ccc4[nH]c(=O)[nH]c4c3)cccc2c1N", "IC50 / nM": 631}
{"compound structure": "Cc1cc(F)c2c(N)c(C(N)=O)nnc2c1-c1ccc2cn[nH]c2c1", "IC50 / nM": 12.6}

(A) NC(=O)c1nnc2c(-c3ccc4[nH]ccc4c3)cccc2c1N
(B) NC(=O)c1nnc2c(-c3cc4[nH]ncc4cc3Cl)ccc(F)c2c1N
Request: Which value of IC50 is greater, the one for A or the one for B ? Pick one; state its label.
Result: A

---

Read-out record for human BTK (Homo sapiens): IC50
property name: IC50 (nM)

{"compound structure": "CC(C)(C)c1ccc(-c2nc3ccc(-c4cccc5c(N)c(C(N)=O)nnc45)cc3[nH]2)cc1", "numeric readout": 79.4}
{"compound structure": "Cc1ccc2c(N)c(C(N)=O)nnc2c1-c1ccc2cc[nH]c2c1", "numeric readout": 158}
{"compound structure": "Cc1ccc2c(N)c(C(N)=O)nnc2c1-c1ccc2c(c1)c(C)nn2C", "numeric readout": 501}
{"compound structure": "NC(=O)c1nnc2c(-c3ccc4c(c3)CN(c3ccccc3)C4=O)cccc2c1N", "numeric readout": 126}
{"compound structure": "NC(=O)c1nnc2c(-c3ccc4nc(CC5CCOCC5)[nH]c4c3)cccc2c1N", "numeric readout": 2510}
{"compound structure": "NC(=O)c1nnc2c(-c3ccc4c(c3)CNC4=O)cccc2c1N", "numeric readout": 20}

(a) COc1cc2cn[nH]c2cc1-c1ccc(F)c2c(N)c(C(N)=O)nnc12
(b) Cn1cc2cc(-c3cccc4c(N)c(C(N)=O)nnc34)ccc2n1
Request: Endpoint returns the identifier whose IC50 is numerically larger, either a or b . Answer = label.
Result: b
(b: 1000 nM, a: 2 nM)
